Biological target: interaction between GST-MAGEA11 MHD and FAM-PCF11_4 peptide (MAGE-A11:PCF11) (Homo sapiens (Human), UniProt P43364)
Sequence (P43364 218-429): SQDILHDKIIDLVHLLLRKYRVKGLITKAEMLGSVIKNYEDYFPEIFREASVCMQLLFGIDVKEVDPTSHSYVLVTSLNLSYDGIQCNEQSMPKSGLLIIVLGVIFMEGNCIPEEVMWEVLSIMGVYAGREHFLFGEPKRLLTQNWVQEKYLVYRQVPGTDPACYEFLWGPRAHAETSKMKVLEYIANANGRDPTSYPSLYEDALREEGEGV
Assay: TR-FRET dose response competition assay for disruption of MAGE-A11:PCF11 binding
Conditions: Table 8, representative compounds; read-out: TR-FRET IC50
From the text: TR-FRET Assays and High-throughput Screen. Terbium-anti-GST antibody, 1 M Tris pH 7.5 1 M MgCl2 and 1 M DTT were purchased from Invitrogen (Carlsbad, CA), BSA was purchased from Sigma (St. Louis, MO). Dimethyl sulfoxide (DMSO) was purchased from Fisher Scientific (Pittsburgh, PA). Black 384-well low volume plates and 384-well polypropylene compound plates were purchased from Corning Incorporated (Tewksbury, MA). […]
pIC50: −log10 of the molar value.
// reported pIC50 for each item listed
recorded.endpoint: pIC50

1) COc1ccc(F)cc1CNCCCNc1ccnc2cc(-c3cccc4ccccc34)ccc12 [SJ000311277]; 4.99
2) CCc1ccc(CNCCCNc2ccnc3cc(C(F)(F)F)ccc23)cc1 [SJ000521067]; 4.39
3) COc1ccc(F)cc1CNCCCNc1ccnc2cc(Oc3ccccc3OC)ccc12 [SJ000311213]; 4.16
4) COc1ccc(OC(F)(F)F)cc1CNCCCNc1ccnc2cc(C(F)(F)F)ccc12 [SJ000521063]; 4.16
5) Clc1ccc(Oc2ccc3c(NCCCNCc4cccc5c4OCO5)ccnc3c2)cc1 [SJ000311228]; 4.75
6) COc1ccc(F)cc1CNCCCNc1ccnc2cc(CC(C)C)ccc12 [SJ000311261]; 4.16
